assay.target: T1, mouse folate receptor alpha (mFRα), recombinant protein (mouse, UniProt P35846 25-232)
T1 construct: Bought recombinant proteins (e.g. biotinylated, Acro Biosystems FO1-M82E9); also called mFOLR1; Ms FOLR1
T1 sequence (P35846 25-232 limits assumed): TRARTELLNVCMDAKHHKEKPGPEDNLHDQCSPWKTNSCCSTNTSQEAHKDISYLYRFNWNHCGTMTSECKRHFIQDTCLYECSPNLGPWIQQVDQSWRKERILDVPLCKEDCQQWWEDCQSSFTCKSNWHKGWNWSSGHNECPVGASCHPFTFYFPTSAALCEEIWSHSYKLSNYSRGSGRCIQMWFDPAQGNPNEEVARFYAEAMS
measurement.protocol: BLI, biotinylated FOLR1 on streptavidin biosensors
recorded.metric: Fold to 2HF042 (koff)

2HFO9(G54H)-NT (VHH, not shown: neurotensin tridecapeptide (NT) and any linker or tags of the fusion) VHH: QVQLQESGGGLVQAGGSLRLSCAASGSGFSGMIMGWYRQAPGKQRELVATITSHGTTNYADSVKGRFTISRDNAKNTVLLQMNSLKPEDTAVYYCNAHFPGIYWGKGTQVTVSS
1

Fill in the blank: the reported Fold to 2HF042 (koff) of 2MFR67 (E72D, D72N, S74A)-NT (VHH, not shown: small tags and cut ends, Second substitution printed D72N; also called 2MFR67 triple mutant) VHH: QVQLQESGGGLVQAGGSLRLSCAASGSGFSGMIMGWYRQAPGKQRELVATVTSHGTTNYADSVKGRFTISRDNAKNTVLLQMNSLKPEDTAVYYCNAHFPGIYWGKGTQVTVSS is ____.
0.9

2HFO42-NT (2HFO42 fused to neurotensin) (VHH) VHH: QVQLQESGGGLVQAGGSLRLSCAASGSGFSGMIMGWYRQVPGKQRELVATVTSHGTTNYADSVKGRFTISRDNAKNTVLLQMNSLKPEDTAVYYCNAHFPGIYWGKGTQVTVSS ?
1

Source listed as patent US20250304677A1.
